# Test system: rat liver microsomes
# test protocol: Stimulation of adrenochrome formation (superoxide) by rat hepatic microsomal incubations
# Format: biochemical
# condition set: without SOD; (drug-stimulated rate - basal rate)/basal rate × 100
quantity measured: percentage stimulation of adrenochrome formation (%)
Value expressed in %; do not type the unit.

**Query** Would you mind telling me what percentage stimulation of adrenochrome formation value was observed for `Cc1c2oc3c(C)c4oc(-c5ccccc5)nc4c(C(=O)N[C@@H]4C(=O)N[C@H](C(C)C)C(=O)N5CCC[C@H]5C(=O)N(C)CC(=O)N(C)[C@@H](C(C)C)C(=O)O[C@@H]4C)c3nc-2c(C(=O)N[C@@H]2C(=O)N[C@H](C(C)C)C(=O)N3CCC[C@H]3C(=O)N(C)CC(=O)N(C)[C@@H](C(C)C)C(=O)O[C@@H]2C)c(N)c1=O` ?
**Result** 800

----------
# test protocol: Toxic deaths in nontumored mice treated in parallel (colon 38 experiment)
# Format: in vivo
# condition set: dose 0.60 mg/kg iv days 1, 5, 9
*1 amine or outer side, *2 acyl side, *3 side chain or, on linkers, in order; H or OH if unused. Where a SMILES comes first, the peptide text is derived from it. Bridges are numbered along the chain shown (N, C = ends). Roman numbers before positions name the chains, in order. [ ]: non-standard residue; d: D form. Actinocin(9to1) = Cc1c2oc3c(C)ccc(C(=O)[*:1])c3nc-2c(C(=O)[*:2])c(N)c1=O; NMeV = CN[C@H](C(=O)O)C(C)C; Sar = CNCC(=O)O
quantity measured: toxic deaths

[
  {
    "molecule": "Cc1c2oc3c(C)c4oc(-c5ccccc5)nc4c(C(=O)N[C@@H]4C(=O)N[C@H](C(C)C)C(=O)N5CCC[C@H]5C(=O)N(C)CC(=O)N(C)[C@@H](C(C)C)C(=O)O[C@@H]4C)c3nc-2c(C(=O)N[C@@H]2C(=O)N[C@H](C(C)C)C(=O)N3CCC[C@H]3C(=O)N(C)CC(=O)N(C)[C@@H](C(C)C)C(=O)O[C@@H]2C)c(N)c1=O",
    "toxic deaths": "0/9"
  },
  {
    "molecule": "Cc1c2oc3c(C)c(O)c(N)c(C(=O)N[C@@H]4C(=O)N[C@H](C(C)C)C(=O)N5CCC[C@H]5C(=O)N(C)CC(=O)N(C)[C@@H](C(C)C)C(=O)O[C@@H]4C)c3nc-2c(C(=O)N[C@@H]2C(=O)N[C@H](C(C)C)C(=O)N3CCC[C@H]3C(=O)N(C)CC(=O)N(C)[C@@H](C(C)C)C(=O)O[C@@H]2C)c(N)c1=O",
    "toxic deaths": "0/9"
  },
  {
    "molecule": "Cc1c2oc3c(C)c4oc(CC(=O)NCCCCN)nc4c(C(=O)N[C@@H]4C(=O)N[C@H](C(C)C)C(=O)N5CCC[C@H]5C(=O)N(C)CC(=O)N(C)[C@@H](C(C)C)C(=O)O[C@@H]4C)c3nc-2c(C(=O)N[C@@H]2C(=O)N[C@H](C(C)C)C(=O)N3CCC[C@H]3C(=O)N(C)CC(=O)N(C)[C@@H](C(C)C)C(=O)O[C@@H]2C)c(N)c1=O",
    "toxic deaths": "4/9"
  }
]

Then this molecule:
**Query** Would you mind telling me what toxic deaths value was observed for Cc1c2oc3c(C)ccc(C(=O)N[C@@H]4C(=O)N[C@H](C(C)C)C(=O)N5CCC[C@H]5C(=O)N(C)CC(=O)N(C)[C@@H](C(C)C)C(=O)O[C@@H]4C)c3nc-2c(C(=O)N[C@@H]2C(=O)N[C@H](C(C)C)C(=O)N3CCC[C@H]3C(=O)N(C)CC(=O)N(C)[C@@H](C(C)C)C(=O)O[C@@H]2C)c(N)c1=O [AMD (1), Actinomycin D] (I: T[dV]P[Sar][NMeV] / II: T[dV]P[Sar][NMeV]; ester I:1-I:C, II:1-II:C; linker I:N-II:N via Actinocin(9to1)) ?
**Result** 4/9
